# measuredOn: DNA dC->dU-editing enzyme APOBEC-3F (Homo sapiens)
# experimentNotes: qHTS for inhibitors of Vif-A3F interactions: Cherry picks;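 further: % of control where 0% means no effect; active compounds raise eYFP fluorescence by blocking Vif-driven A3F loss; nearly all actives have a fitted effect of over 70% in size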
# conditionsUsed: HeLa A3F-eYFP + Vif (tagged APOBEC3F with the HIV-1 protein that degrades it), eYFP fluorescence, 24 h
In all, about 2,100 compounds went through this assay and about 590 (28%) were called active. About 42% were inconclusive and are not listed. The list shows a part of the results.
max response values for the molecules below.
Value expressed in %; do not type the unit.

Here's what some known entries look like.
Noted for COc1ccc(NC(=O)c2oc3ccc(S(=O)(=O)N4CCOCC4)cc3c2C)cc1 : its max response reads -0.455

Noted for NC(=S)N/N=C/c1ccccc1OC(=O)/C=C/c1ccccc1 : its max response reads -3.11

Noted for Cc1cccc(-n2c(N)c(-c3nc4ccccc4n3C)c3nc4ccccc4nc32)c1 : its max response reads -0.799

Noted for CC1(C)CC(=O)C(C=Nc2cc(C(=O)c3ccccc3)ccc2N)=C(O)C1 : its max response reads -20.7

Noted for Cc1cc(C)cc(Oc2nc(C(F)(F)F)nc3ccccc23)c1 : its max response reads -26.3

Continuing:
Noted for CCOC1=C/C(=C/c2c(N)n3nc(-c4ccccc4)sc3nc2=O)C=CC1=O : its max response reads 3.18

Noted for COc1ccc(-c2cc(-c3nnc(COC(=O)c4ccncc4)o3)c3ccccc3n2)cc1OC : its max response reads 2.21

Noted for NC1=NC(=O)/C(=C/c2cc(Br)c(O)c(Br)c2)S1 : its max response reads -7.06

Noted for CN1CCc2c(sc3c2C(=O)NC(c2ccc(-c4ccc(Cl)cc4)o2)N3)C1 (stereo not drawn) : its max response reads -10.4

Noted for CCCCOc1ccc(/C=C/C2=CC(C)(C)NC(=S)N2)cc1OCC : its max response reads -3.97

Noted for O=C(Nc1nc(NC(=O)c2ccco2)n(-c2ccccc2)n1)c1ccccc1 : its max response reads -10.5

Noted for Cc1ccc(N=C2NC(=O)CC(C(=O)Nc3ccc4c(c3)OCO4)S2)cc1 (stereo not drawn) : its max response reads -22.7

Noted for Cc1c(C)n(Cc2ccccc2)c2ccc(C(=O)NCc3ccco3)cc12 : its max response reads -24.7
